Listed here: items and their measured concentration at 3 h.
Experiment: Drug uptake in Wistar rat brain at 100 mg/kg, po after 3 hrs
Assay type: ADME, organism-based
Design: dose 100 mg/kg, route oral
Details: read-out: Drug uptake
Report the figure in nM without appending any unit label.

CNC(=O)[C@@H](c1ccccc1)N1CCn2c(C3CC3)nc(Cl)c2[C@@H]1CCc1ccc(C(F)(F)F)cc1 : 385

Please turn your attention to the following entry.
Given the molecule `CCc1nc(Cl)c2n1CCN([C@@H](C(=O)NC)c1ccccc1)[C@H]2CCc1ccc(C(F)(F)F)cc1` , what is its reported concentration at 3 h?
303

----------
Target: Orexin/Hypocretin receptor type 1 (Homo sapiens)
Sequence (O43613 whole entry): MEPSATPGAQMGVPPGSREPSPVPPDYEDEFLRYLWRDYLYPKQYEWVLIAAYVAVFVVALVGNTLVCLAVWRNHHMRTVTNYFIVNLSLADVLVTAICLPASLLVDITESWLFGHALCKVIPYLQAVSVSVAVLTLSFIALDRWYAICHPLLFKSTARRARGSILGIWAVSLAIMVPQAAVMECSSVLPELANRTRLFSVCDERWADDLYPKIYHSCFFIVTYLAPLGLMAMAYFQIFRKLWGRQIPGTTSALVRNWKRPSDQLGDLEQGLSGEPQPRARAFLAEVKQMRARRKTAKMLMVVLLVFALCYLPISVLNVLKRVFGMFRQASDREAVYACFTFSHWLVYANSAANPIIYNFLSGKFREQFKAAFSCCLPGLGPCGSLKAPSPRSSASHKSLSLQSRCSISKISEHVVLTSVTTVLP
Assay: Antagonist activity at human OX1 receptor expressed in CHO cells assessed as inhibition of orexin A-induced calcium influx by FLIPR assay
Listed here: items and their measured IC50.
Report the figure in µM without appending any unit label.

CCc1nc(C#N)c2n1CCN([C@@H](C(=O)NC)c1ccccc1)C2CCc1ccc(C(F)(F)F)cc1 (mixture of isomers) : 0.537
CCc1nc(Cl)c2n1CCN([C@@H](C(=O)NC)c1ccccc1)[C@H]2CCc1ccc(C(F)(F)F)cc1 : 0.04
CCc1nc(OC)c2n1CCN([C@@H](C(=O)NC)c1ccccc1)C2CCc1ccc(C(F)(F)F)cc1 (mixture of isomers) : 0.134

Please turn your attention to the following entry.
Given the molecule `CCc1nc(Cl)c2n1CCN([C@@H](C(=O)NC)c1ccccc1)[C@@H]2CCc1ccc(C(F)(F)F)cc1` , what is its reported IC50?
0.283
